- System Name: Metabotropic glutamate receptor 1 (Rattus norvegicus, UniProt P23385)
- Sequence (P23385 whole entry): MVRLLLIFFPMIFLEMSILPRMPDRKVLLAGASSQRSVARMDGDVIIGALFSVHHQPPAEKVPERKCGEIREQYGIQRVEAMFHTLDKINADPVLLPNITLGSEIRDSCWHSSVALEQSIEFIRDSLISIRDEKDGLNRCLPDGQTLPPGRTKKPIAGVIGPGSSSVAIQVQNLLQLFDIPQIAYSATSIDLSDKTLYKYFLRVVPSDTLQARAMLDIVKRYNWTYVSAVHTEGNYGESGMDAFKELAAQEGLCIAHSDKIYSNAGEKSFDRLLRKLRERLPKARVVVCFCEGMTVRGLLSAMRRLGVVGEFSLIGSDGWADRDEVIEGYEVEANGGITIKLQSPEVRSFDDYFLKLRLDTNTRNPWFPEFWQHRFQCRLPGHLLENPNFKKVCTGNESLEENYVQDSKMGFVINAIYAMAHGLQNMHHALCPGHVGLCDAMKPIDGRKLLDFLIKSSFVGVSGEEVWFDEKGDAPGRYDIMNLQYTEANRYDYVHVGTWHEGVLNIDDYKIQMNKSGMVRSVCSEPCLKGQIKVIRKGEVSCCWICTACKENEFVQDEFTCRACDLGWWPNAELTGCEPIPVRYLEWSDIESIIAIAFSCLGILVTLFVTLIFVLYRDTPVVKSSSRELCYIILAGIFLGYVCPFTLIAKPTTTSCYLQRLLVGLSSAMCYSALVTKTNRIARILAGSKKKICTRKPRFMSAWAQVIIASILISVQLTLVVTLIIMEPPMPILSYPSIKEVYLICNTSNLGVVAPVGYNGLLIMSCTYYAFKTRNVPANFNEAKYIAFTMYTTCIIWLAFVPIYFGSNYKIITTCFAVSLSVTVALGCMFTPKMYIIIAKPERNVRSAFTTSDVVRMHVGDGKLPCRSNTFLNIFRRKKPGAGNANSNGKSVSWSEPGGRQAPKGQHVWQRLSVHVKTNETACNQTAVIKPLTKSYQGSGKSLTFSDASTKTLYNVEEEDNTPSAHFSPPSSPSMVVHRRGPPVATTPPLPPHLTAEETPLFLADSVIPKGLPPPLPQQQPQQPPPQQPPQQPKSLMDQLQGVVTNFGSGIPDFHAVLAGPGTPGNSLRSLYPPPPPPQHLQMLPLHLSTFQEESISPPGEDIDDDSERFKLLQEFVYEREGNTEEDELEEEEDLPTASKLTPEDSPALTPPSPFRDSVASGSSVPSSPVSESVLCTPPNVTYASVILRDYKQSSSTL
- Experiment Description: Inhibition of rat mGluR1
- Experimental Context: read-out: IC50
pIC50: −log10 of the molar value.
Metric Name: pIC50

Example compounds with recorded pIC50:
| Compound | System Name | Quantitative Result |
| --- | --- | --- |
| CN(C)c1ccnc2sc3c(=O)n(-c4ccc(C(F)(F)F)cc4)cnc3c12 | Metabotropic glutamate receptor 1 (Rattus norvegicus, UniProt P23385) | 7.49 |
| C[N+](C)([O-])c1ccnc2sc3c(=O)n(C4CCCCCC4)cnc3c12 | Metabotropic glutamate receptor 1 (Rattus norvegicus, UniProt P23385) | 6.78 |
| CN(C)c1ccnc2sc3c(=O)n(-c4ccccc4O)cnc3c12 | Metabotropic glutamate receptor 1 (Rattus norvegicus, UniProt P23385) | 7.30 |

P: COc1ccc(-n2cnc3c(sc4nccc(N(C)C)c43)c2=O)cn1
Q: Cc1ccc(-n2cnc3c(sc4nccc(N(C)C)c43)c2=O)cc1
Inquiry: Of P versus Q , which is the one with smaller reported pIC50? Response format: the label of the selected entry.
Reply text: P

1: CN(C)c1ccnc2sc3c(=O)n(CC4CCCCC4)cnc3c12
2: CN(C)c1ccnc2sc3c(=O)n(CC4CCCC4)cnc3c12
Inquiry: For this pair, 1 and 2 , which shows a numerically higher pIC50? Response format: the label of the selected entry.
Reply text: 2

P: CCc1ccc(-n2cnc3c(sc4nccc(NCC(F)(F)F)c43)c2=O)cc1
Q: CN(C)c1ccnc2sc3c(=O)n(C4CC4)cnc3c12
R: CN(C)c1ccnc2sc3c(=O)n(C4CCCCC4)cnc3c12
S: CN(C)c1ccnc2sc3c(=O)n(-c4ccccc4)cnc3c12
T: CN(C)c1ccnc2sc3c(=O)n(C4CCCC4)cnc3c12
Inquiry: Falling order of pIC50, please. Sort and list the labels as requested.
Reply text: T, S, R, P, Q

a: CN(C)c1ccnc2sc3c(=O)n(-c4ccc5cc[nH]c5c4)cnc3c12
b: CN(C)c1ccnc2sc3c(=O)n(-c4ccc(Cl)cc4Cl)cnc3c12
c: CN(C)c1ccnc2sc3c(=O)n(C4CCCCCC4)cnc3c12
d: CN(C)c1ccnc2sc3c(=O)n(-c4ccc(Cl)cc4)cnc3c12
e: CN(C)c1ccnc2sc3c(=O)n(-c4ccc(C(C)(C)C)cc4)cnc3c12
Inquiry: Falling order of pIC50, please. Sort and list the labels as requested.
Reply text: c, d, b, a, e
